Consider the following binders; for each one, report its Maximum Blocking.
- EXPERIMENTAL SYSTEM: T1, biotinylated cyno IL-33 (cynomolgus monkey, UniProt A0A2K5W3I1 112-269, biotin-labeled with EZ-LINK NHS-PEG4-Biotin)
- T1 construct: also called biotin-cyIL-33
- T1 sequence: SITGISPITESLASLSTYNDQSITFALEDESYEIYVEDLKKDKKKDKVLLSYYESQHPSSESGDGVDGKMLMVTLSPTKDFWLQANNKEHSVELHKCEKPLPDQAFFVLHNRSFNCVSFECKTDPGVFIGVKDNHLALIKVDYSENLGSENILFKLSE
- PROTOCOL DETAILS: competitive ELISA, biotin-cyIL-33 to coated hST2-Fc
One number for each entry, in %.

Illustrative cases are given below, each with its answer.
{"BINDER": "10C12.38.H6.87Y.58I IgG4 (antibody, V domains shown, also called anti-IL33 10C12.38.H6.87Y.58I IgG4) VH: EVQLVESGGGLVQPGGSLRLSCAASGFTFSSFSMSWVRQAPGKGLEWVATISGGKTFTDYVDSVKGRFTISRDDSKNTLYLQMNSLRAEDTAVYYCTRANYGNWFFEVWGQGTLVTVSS VL: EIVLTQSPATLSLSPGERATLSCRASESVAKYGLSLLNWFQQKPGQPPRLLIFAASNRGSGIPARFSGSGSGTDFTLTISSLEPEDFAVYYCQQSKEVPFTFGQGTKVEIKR", "Maximum Blocking / %": 87}
{"BINDER": "H4H9670P (antibody, V domains shown) VH: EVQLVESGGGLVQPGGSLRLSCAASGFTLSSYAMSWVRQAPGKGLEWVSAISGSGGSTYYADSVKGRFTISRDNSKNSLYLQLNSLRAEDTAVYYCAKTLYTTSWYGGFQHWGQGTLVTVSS VL: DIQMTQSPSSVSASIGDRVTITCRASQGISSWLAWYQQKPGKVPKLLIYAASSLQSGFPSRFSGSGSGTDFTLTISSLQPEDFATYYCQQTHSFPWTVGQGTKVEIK", "Maximum Blocking / %": 27}
{"BINDER": "H4H9664P (antibody, V domains shown) VH: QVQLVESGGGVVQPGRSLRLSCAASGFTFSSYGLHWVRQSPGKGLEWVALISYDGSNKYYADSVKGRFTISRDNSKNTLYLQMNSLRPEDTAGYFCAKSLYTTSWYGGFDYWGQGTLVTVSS VL: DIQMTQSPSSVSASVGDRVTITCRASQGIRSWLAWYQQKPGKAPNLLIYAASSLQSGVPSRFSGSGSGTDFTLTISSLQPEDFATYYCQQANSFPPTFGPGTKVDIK", "Maximum Blocking / %": 10}

Proceeding to the next binder to report its Maximum Blocking.
Which value of Maximum Blocking has been reported for H4H9662P (antibody, V domains shown) VH: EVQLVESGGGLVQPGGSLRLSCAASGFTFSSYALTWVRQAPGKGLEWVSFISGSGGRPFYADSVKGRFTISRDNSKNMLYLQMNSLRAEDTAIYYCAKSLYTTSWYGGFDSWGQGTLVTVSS VL: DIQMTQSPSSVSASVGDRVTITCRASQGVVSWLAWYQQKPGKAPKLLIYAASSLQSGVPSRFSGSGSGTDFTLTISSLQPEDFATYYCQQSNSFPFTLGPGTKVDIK in the records?
47

Hey, just so you know, these numbers are from patent US20190092852A1.
